System: DMS-114
TEST DESCRIPTION: NCI tumour cell line growth inhibition, 48 h
The source made the active and inactive calls. Rule as the data show it: active = GI50 up to about 1.1 µM and inactive = higher. Where a SMILES comes first, the peptide text is derived from it. Non-standard residues stand in square brackets, D forms with d. Residues, ends and D or L forms follow the SMILES beside them. [ ]: non-standard residue; d: D form. ξ: configuration not given here. Phe(F5) = N[CH](Cc1c(F)c(F)c(F)c(F)c1F)C(=O)O; Pen = CC(C)(S)[C@H](N)C(=O)O; ξL = CC(C)CC(N)C(=O)O
Lab note: assign the record to one of y for active, n for inactive

Illustrative cases are given below, each with its answer.
COC(=O)C1C(O)C(C)C(O)C(C)(O)/C=C\C=C(C)C(=O)Nc2c(C)c(OC(C)=O)c3c(c2O)C(=O)C(C)=C2OCOC(=C23)C(C)=CC(C)(O)C(O)C(C)C1OC(C)=O (configuration not stated) :: n
C=C1C(=O)OC2/C=C(\CO)C(OC(C)=O)CC(O)/C(C)=C/C(OC(=O)C(C)CC)C12 (configuration not stated) :: n

What is the recorded call for this molecule in the test? COc1cc(C2C(C(=O)O)=C(C)Oc3cc4c(cc32)OCO4)cc(OC)c1OC (configuration not stated)
n

What is the recorded call for this molecule in the test? COC1OC(COCc2ccc(Cl)cc2)C(OCc2ccc(Cl)cc2)C1O (configuration not stated)
n

What is the recorded call for this molecule in the test? CSCC[C@H](NC(=O)C(CC(C)C)NC(=O)[C@H](Cc1c[nH]cn1)NC(=O)CNC(=O)[C@@H](NC(=O)[C@@H](C)NC(=O)[C@H](Cc1c[nH]c2ccccc12)NC(=O)[C@H](CCC(N)=O)NC(=O)[C@@H](N)CC(N)=O)C(C)(C)SC)C(N)=O (some centres not stated) (H-NQW[dA][Pen](Me)GH[ξL]M-NH2)
n

What is the recorded call for this molecule in the test? CC(=O)Oc1ccc(C(c2ccc(OC(C)=O)cc2)c2ccccn2)cc1
y

What is the recorded call for this molecule in the test? O=C(Cc1nc2sc3c(c2c(=O)[nH]1)CCCC3)Nc1ccccc1
n

What is the recorded call for this molecule in the test? COC(=O)C(=O)OC1(C(C)=O)CC2(c3ccccc3)OC1(c1ccccc1)c1ccccc12 (configuration not stated)
n

What is the recorded call for this molecule in the test? COC(=O)C(CC(C)C)NC(=O)C(Cc1c[nH]cn1)NC(=O)CNC(=O)C(NC(=O)C(C)NC(=O)C(Cc1c[nH]c2ccccc12)NC(=O)C(CCC(=O)O)NC(=O)C(N)Cc1c(F)c(F)c(F)c(F)c1F)C(C)C (configuration not stated) (H-[Phe(F5)]EWAVGHL-OMe; configuration not given here)
n

What is the recorded call for this molecule in the test? C/C(=N/NS(=O)(=O)c1ccccc1)c1cccc[n+]1[O-]
n

* * *

System: OVCAR-8
TEST DESCRIPTION: NCI tumour cell line growth inhibition, 48 h
Activity calls are given as the source filed them. Cut-off read from the data, not from the text of the source: active = GI50 up to about 1.1 µM and inactive = higher.
Lab note: assign the record to one of Y (active), N (inactive)

Illustrative cases are given below, each with its answer.
O=C1c2ccccc2/N=C(/c2cc3c(cc2Cl)Sc2nccn2S3(=O)=O)OS(=O)(=O)N1c1ccccc1 :: N
Cc1cc(=O)nc(S(=O)(=O)NC(=S)Nc2ccc(Cl)cc2)[nH]1 :: N
Cc1ccc(C(=O)Cc2nc3c([nH]c2=O)c(C)nn3-c2ccccc2)c(C)c1 :: N
CC(=O)C1=C(C)N2C(=NC3=C(CCc4ccccc43)C2c2cccc(Br)c2)S1 (stereo not given) :: N
C[n+]1[se]c2ccccc2c1Cl :: N
C=C(C)CC1=C(OCC)C(OC)(OCC)C1=O (stereo not given) :: N
O=[N+]([O-])c1cccc2nc3ccccc3c(NCCCCNc3c4ccccc4nc4cccc([N+](=O)[O-])c34)c12 :: Y
N=C(N)c1ccc(/N=N\c2c(O)ccc3c2[nH]c2ccccc23)cc1 :: N
COC(=O)C(=O)C(C(=O)OC)C(=O)C(=O)Nc1c(C)cccc1C (stereo not given) :: N

Field: next compound
What is the recorded call for this compound in the test? CC(C)(C)OC(=O)[C@@H]1CCC(=S)N1Cc1ccccc1
N

* * *

Test system: OVCAR-5
TEST DESCRIPTION: NCI tumour cell line growth inhibition, 48 h
Calls of active or inactive are those of the source. No stated cut-off is given here; in the data, active = GI50 up to about 1.1 µM and inactive = higher.
QUANTITY KIND: GI50

// known answers, use as guide
COc1ccc(NC(=O)c2cc(OC)cc(OC)c2)cc1 :: > 59.8 µM (inactive)
CC1(C)SC2C(NC(=O)C(C(=O)O)c3ccccc3)C(=O)N2C1C(=O)O (configuration not stated) :: > 100 µM (inactive)
C=CC1(c2ccccc2Cl)N/C(=C/OCC)CO1 (configuration not stated) :: > 100 µM (inactive)
O=c1oc2ccccc2c2c(=O)c3ccc(OC/C(=N/O)c4ccc(Cl)cc4)cc3oc12 :: 17.3 µM (inactive)
N/N=C(\C(=O)Nc1c(Cl)cc([N+](=O)[O-])cc1Cl)C(c1cnc2ccc([N+](=O)[O-])cc2n1)[N+](=O)[O-] (configuration not stated) :: > 100 µM (inactive)
CC/C(Cl)=N\OC(=O)Nc1ccc(F)cc1F :: 17.9 µM (inactive)

Please give GI50 for each item listed below.
1. O=C(O)c1cc(/C=C/c2ccc(O)c(O)c2)ccc1O
2. S=C1N(/N=C/c2c3ccccc3cc3ccccc23)C(=N\c2ccccc2)/C(=N/c2ccccc2)N1c1ccccc1
3. CN1C(=O)CC(=O)N1/C(=C/c1ccccc1)c1ccccc1
4. COC(=O)c1c2c(cc3c1CC1(C3)Cc3ccc4c(c3C1=O)CCC4)CCC2 (configuration not stated)
5. CN(C)CCNC(=O)c1cc(Cl)cc2cc3ccccc3nc12
6. C[S+](C)CC1OC(n2cnc3c(N)ncnc32)C(O)C1O (configuration not stated)
7. O=C1c2c(ccc3c2CCC3)CC1Cc1ccc2c(c1)CCC2 (configuration not stated)
8. CN(C)CCC1(C2=CCCC2)CC/C(=C\c2ccc(Cl)cc2)C1=O (configuration not stated)

1. > 100 µM (inactive)
2. > 100 µM (inactive)
3. > 100 µM (inactive)
4. > 21.1 µM (inactive)
5. 1.15 µM (inactive)
6. > 225 µM (inactive)
7. 90.2 µM (inactive)
8. 12.9 µM (inactive)

Please give GI50 for each item listed below.
1. O=c1c(-c2ccc3c(c2)OCO3)coc2c3c(ccc12)OCO3
2. C=C(COC(C)=O)CC(/C=C(\C)CCC=C(C)C)OC(C)=O (configuration not stated)
3. O=c1cc(N2CCOCC2)[nH]c(=O)n1-c1cccc(C(F)(F)F)c1
4. CCOC(=N)CC(=O)c1ccccc1
5. c1ccc2c(c1)SCCc1cn[nH]c1-2

56.6 µM (inactive)
> 100 µM (inactive)
> 100 µM (inactive)
> 100 µM (inactive)
> 100 µM (inactive)

Please give GI50 for each item listed below.
1. CCCCCCCCCCCCCCCCCC(=O)OCC(C[As](=O)(O)O)OC(=O)CCCCCCCCCCCCCCCCC (configuration not stated)
2. c1ccc([P+](c2ccccc2)(c2ccccc2)c2ccc(-c3ccc([P+](c4ccccc4)(c4ccccc4)c4ccccc4)cc3)cc2)cc1
3. CC(O)CN1C(=O)NC(Cc2ccccc2)C1=O (configuration not stated)

> 100 µM (inactive)
67.5 µM (inactive)
> 100 µM (inactive)

* * *

As an illustration, consider measured GI50 for compounds on HCT-15.

O=C1Nc2ccccc2C1(O)C/C(=N/O)c1ccc2ccccc2c1 (configuration not stated) :: > 100 µM
CC(C)(C)c1cc(C(O)(C(=O)O)C(=O)O)cc(C(C)(C)C)c1O :: > 100 µM
C[n+]1ccc(-c2cc[n+](C)cc2)cc1 [PARAQUAT DICHLORIDE] :: > 32.4 µM
COc1ccccc1/C=C1\N=C(C)OC1=O :: > 100 µM
O=c1oc2ccccc2c2c(=O)c3ccc(OC/C(=N/O)c4ccc(Cl)cc4)cc3oc12 :: 7.4 µM
c1ccc(OCc2nnc(CCCCCCCCc3nnc(COc4ccccc4)o3)o2)cc1 :: > 100 µM
C=C(C)CC1=C(C(=S)NCCO[Si](C)(C)C(C)(C)C)C(OCC)(OCC)C1=O :: 8.93 µM
COC(=O)/C(C#N)=C(\Nc1ccccc1)N1CCCC1 :: > 100 µM
O=C(c1ccc(Br)cc1)n1c2ccc(Br)cc2c2nc3ccccc3nc21 :: > 100 µM
C=CC1(c2ccccc2Cl)N/C(=C/OCC)CO1 (configuration not stated) :: > 100 µM

Please give GI50 for each item listed below.
1. CCOc1ncnc2ccc(Cl)c(I)c12
2. O=C(OCC1OC(n2nc(Cn3nnc(-c4cccnc4)n3)n(-c3cccc4ccccc34)c2=S)C(OC(=O)c2ccccc2)C1OC(=O)c1ccccc1)c1ccccc1 (configuration not stated)
3. CC(C)(C)OC(=O)[C@@H]1CCC(=S)N1Cc1ccccc1
4. Cc1ccc(N(C)S(=O)(=O)c2ccc([N+](=O)[O-])cc2)cc1

["> 100 µM", "> 100 µM", "> 100 µM", "91.4 µM"]
